# measurement target: T1, human GFRα2 expressed with a C-terminal human Fc tag and a hexahistidine tag (human, UniProt O00451 22-441, limits assumed)
# T1 construct: bought protein; also called hGFRα2-hFc-6His; hGFRα2-hFc-6his
# T1 sequence (looked up): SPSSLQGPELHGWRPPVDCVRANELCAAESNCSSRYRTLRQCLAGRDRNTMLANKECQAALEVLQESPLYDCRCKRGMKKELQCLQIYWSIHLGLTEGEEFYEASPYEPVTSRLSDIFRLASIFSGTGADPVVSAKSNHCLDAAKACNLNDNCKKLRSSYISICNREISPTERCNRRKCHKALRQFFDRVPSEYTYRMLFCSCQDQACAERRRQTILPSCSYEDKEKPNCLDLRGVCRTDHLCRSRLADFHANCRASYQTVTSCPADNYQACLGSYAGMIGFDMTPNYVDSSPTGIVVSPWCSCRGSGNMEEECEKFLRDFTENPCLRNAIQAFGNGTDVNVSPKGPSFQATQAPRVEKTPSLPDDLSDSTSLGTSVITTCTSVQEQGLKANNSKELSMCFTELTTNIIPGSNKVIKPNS
# method description: BLI Octet, antigen on anti-hFc tips, 100 ug/mL Ab
measured attribute: Bound (nm)
Give bare numbers, in nm.

Consider the worked cases shown below.
[[record]]
binder = "H4H2352S (antibody, human IgG4, V domains shown, human IgG4 Fc (H4H); also called H4H2352S-1) VH: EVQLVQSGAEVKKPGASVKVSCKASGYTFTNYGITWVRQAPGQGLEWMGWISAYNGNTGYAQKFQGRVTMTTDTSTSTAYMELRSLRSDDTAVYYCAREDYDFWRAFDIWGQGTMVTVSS VL: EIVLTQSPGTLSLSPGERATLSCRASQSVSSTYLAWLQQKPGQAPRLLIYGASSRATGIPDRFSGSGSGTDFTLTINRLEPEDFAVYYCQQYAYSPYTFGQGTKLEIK"
measured_attribute = "Bound (nm)"
measured_number = 0.04

[[record]]
binder = "H4H2243N2 (antibody, human IgG4, V domains shown, human IgG4 Fc (H4H)) VH: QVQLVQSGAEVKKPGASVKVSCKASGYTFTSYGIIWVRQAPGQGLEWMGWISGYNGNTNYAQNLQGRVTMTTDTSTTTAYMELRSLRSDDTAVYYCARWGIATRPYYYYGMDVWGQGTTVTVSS VL: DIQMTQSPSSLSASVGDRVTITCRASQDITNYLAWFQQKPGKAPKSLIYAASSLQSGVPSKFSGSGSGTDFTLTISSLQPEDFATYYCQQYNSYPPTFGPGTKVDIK"
measured_attribute = "Bound (nm)"
measured_number = 0.06


For the next question, use this binder.
Ask | Can you share its Bound (nm)? I mean this binder: H4H2342P (antibody, human IgG4, V domains shown, human IgG4 Fc (H4H)) VH: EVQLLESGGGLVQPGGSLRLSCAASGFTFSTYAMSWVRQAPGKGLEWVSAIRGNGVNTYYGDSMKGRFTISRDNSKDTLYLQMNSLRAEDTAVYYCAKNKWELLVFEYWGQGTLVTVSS VL: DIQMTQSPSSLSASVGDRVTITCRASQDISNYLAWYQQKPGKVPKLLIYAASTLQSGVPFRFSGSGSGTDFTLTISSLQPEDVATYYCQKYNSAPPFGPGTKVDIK
Reply | 0.12
